molecular target: cathepsin L (Homo sapiens); construct: made in house; assay: Kinetic parameters of ACC substrates with cathepsin L; assay type: biochemical; settings: Fig. 5B; pH 5.5, 37 °C; cathepsin L 0.1–0.5 nM; triplicate, SD below 15%
Non-standard residues stand in square brackets, D forms with d. *: point of attachment. Phe(F5) = N[C@@H](Cc1c(F)c(F)c(F)c(F)c1F)C(=O)O; Phe(3,4-F2) = N[C@@H](Cc1ccc(F)c(F)c1)C(=O)O; ACC = NC(=O)Cc1cc(=O)oc2cc(N*)ccc12; hArg = N=C(N)NCCCC[C@H](N)C(=O)O; Mob = COc1ccc(C*)cc1
Items are presented alongside their recorded kcat/KM Cath-L.

substance | kcat/KM Cath-L
Ac-H[dV][Phe(F5)]C(Mob)-{ACC} (SMILES COc1ccc(CSC[C@H](NC(=O)[C@H](Cc2c(F)c(F)c(F)c(F)c2F)NC(=O)[C@H](NC(=O)[C@H](Cc2c[nH]cn2)NC(C)=O)C(C)C)C(=O)Nc2ccc3c(CC(N)=O)cc(=O)oc3c2)cc1) | 2,135,000 M^-1s^-1
Ac-[hArg][dV][Phe(F5)]R-{ACC} (SMILES CC(=O)N[C@@H](CCCCNC(=N)N)C(=O)N[C@@H](C(=O)N[C@@H](Cc1c(F)c(F)c(F)c(F)c1F)C(=O)N[C@@H](CCCNC(=N)N)C(=O)Nc1ccc2c(CC(N)=O)cc(=O)oc2c1)C(C)C) | 454,800 M^-1s^-1
Ac-H[dV][Phe(3,4-F2)]R-{ACC} (SMILES CC(=O)N[C@@H](Cc1c[nH]cn1)C(=O)N[C@@H](C(=O)N[C@@H](Cc1ccc(F)c(F)c1)C(=O)N[C@@H](CCCNC(=N)N)C(=O)Nc1ccc2c(CC(N)=O)cc(=O)oc2c1)C(C)C) | 6,031,000 M^-1s^-1

---

biological target: cathepsin K (Homo sapiens, UniProt P43235); construct: made in house; experiment: Substrate selectivity screening, rate of hydrolysis, cathepsin K; type: biochemical; conditions: Table S4; substrate 100µM, cathepsin 5nM; pH 5.5, 37 °C; average of at least three screenings
Sequence (P43235 115-329): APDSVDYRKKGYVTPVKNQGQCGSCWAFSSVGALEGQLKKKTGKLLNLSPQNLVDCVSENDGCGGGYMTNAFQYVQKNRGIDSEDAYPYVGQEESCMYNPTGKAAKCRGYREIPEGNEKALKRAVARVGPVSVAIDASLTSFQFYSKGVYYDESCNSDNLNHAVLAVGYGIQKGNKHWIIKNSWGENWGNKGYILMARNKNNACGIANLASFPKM
Non-standard residues stand in square brackets, D forms with d. *: point of attachment. Phe(3,4-F2) = N[C@@H](Cc1ccc(F)c(F)c1)C(=O)O; Phe(2-F) = N[C@@H](Cc1ccccc1F)C(=O)O; ACC = NC(=O)Cc1cc(=O)oc2cc(N*)ccc12; Met(O) = CS(=O)CC[C@H](N)C(=O)O; Tic = O=C(O)[C@@H]1Cc2ccccc2CN1; Dab = NCC[C@H](N)C(=O)O
measuredProperty: Relative substrate activity (rate of hydrolysis), cathepsin K (RFU/s)

substance | endpointResult
Ac-[Met(O)][dR][Phe(2-F)]R-{ACC} (SMILES CC(=O)N[C@@H](CCS(C)=O)C(=O)N[C@H](CCCNC(=N)N)C(=O)N[C@@H](Cc1ccccc1F)C(=O)N[C@@H](CCCNC(=N)N)C(=O)Nc1ccc2c(CC(N)=O)cc(=O)oc2c1) | 0.2
Ac-HRFR-{ACC} (SMILES CC(=O)N[C@@H](Cc1c[nH]cn1)C(=O)N[C@@H](CCCNC(=N)N)C(=O)N[C@@H](Cc1ccccc1)C(=O)N[C@@H](CCCNC(=N)N)C(=O)Nc1ccc2c(CC(N)=O)cc(=O)oc2c1) [reference compound] | 24.5
Ac-H[dR][Phe(3,4-F2)]L-{ACC} (SMILES CC(=O)N[C@@H](Cc1c[nH]cn1)C(=O)N[C@H](CCCNC(=N)N)C(=O)N[C@@H](Cc1ccc(F)c(F)c1)C(=O)N[C@@H](CC(C)C)C(=O)Nc1ccc2c(CC(N)=O)cc(=O)oc2c1) | 0.0
Ac-[Tic][Dab][Phe(3,4-F2)]R-{ACC} (SMILES CC(=O)N1Cc2ccccc2C[C@H]1C(=O)N[C@@H](CCN)C(=O)N[C@@H](Cc1ccc(F)c(F)c1)C(=O)N[C@@H](CCCNC(=N)N)C(=O)Nc1ccc2c(CC(N)=O)cc(=O)oc2c1) | 0.2

---

biological target: cathepsin L (Homo sapiens, UniProt P07711); construct: made in house; assay: Kinetic parameters of ACC substrates with cathepsin L; format: biochemical; settings: Table S2; cathepsin L; four independent experiments, S.D. below 15%
Sequence (P07711 114-333): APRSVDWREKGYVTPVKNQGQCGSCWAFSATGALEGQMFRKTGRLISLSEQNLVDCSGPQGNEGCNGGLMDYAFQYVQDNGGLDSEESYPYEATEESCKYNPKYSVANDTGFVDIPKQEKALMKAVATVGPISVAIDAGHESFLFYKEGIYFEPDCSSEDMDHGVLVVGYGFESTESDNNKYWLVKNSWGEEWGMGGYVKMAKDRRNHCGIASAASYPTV
Non-standard residues stand in square brackets, D forms with d. *: point of attachment. Phe(3-Cl) = N[C@@H](Cc1cccc(Cl)c1)C(=O)O; ACC = NC(=O)Cc1cc(=O)oc2cc(N*)ccc12; hArg = N=C(N)NCCCC[C@H](N)C(=O)O; ClZ = O=C(OCc1ccccc1Cl)*; Orn = NCCC[C@H](N)C(=O)O; Dap = NC[C@H](N)C(=O)O; OBn = c1ccc(CO*)cc1; Bn = c1ccc(C*)cc1
measuredProperty: kcat/KM

substance | target | endpointResult
Ac-[Dap][Orn][Phe(3-Cl)]R-{ACC} (SMILES CC(=O)N[C@@H](CN)C(=O)N[C@@H](CCCN)C(=O)N[C@@H](Cc1cccc(Cl)c1)C(=O)N[C@@H](CCCNC(=N)N)C(=O)Nc1ccc2c(CC(N)=O)cc(=O)oc2c1) | cathepsin L (Homo sapiens, UniProt P07711) | 36,310,000 M-1s-1
Ac-[Dap][Orn][Phe(3-Cl)]L-{ACC} (SMILES CC(=O)N[C@@H](CN)C(=O)N[C@@H](CCCN)C(=O)N[C@@H](Cc1cccc(Cl)c1)C(=O)N[C@@H](CC(C)C)C(=O)Nc1ccc2c(CC(N)=O)cc(=O)oc2c1) | cathepsin L (Homo sapiens, UniProt P07711) | 11,290,000 M-1s-1
Ac-[Dap][Orn][Phe(3-Cl)]K-{ACC} (SMILES CC(=O)N[C@@H](CN)C(=O)N[C@@H](CCCN)C(=O)N[C@@H](Cc1cccc(Cl)c1)C(=O)N[C@@H](CCCCN)C(=O)Nc1ccc2c(CC(N)=O)cc(=O)oc2c1) | cathepsin L (Homo sapiens, UniProt P07711) | 19,810,000 M-1s-1
Ac-[Dap][Orn][Phe(3-Cl)]K(ClZ)-{ACC} (SMILES CC(=O)N[C@@H](CN)C(=O)N[C@@H](CCCN)C(=O)N[C@@H](Cc1cccc(Cl)c1)C(=O)N[C@@H](CCCCNC(=O)OCc1ccccc1Cl)C(=O)Nc1ccc2c(CC(N)=O)cc(=O)oc2c1) | cathepsin L (Homo sapiens, UniProt P07711) | 29,280,000 M-1s-1
Ac-[Dap][Orn][Phe(3-Cl)][hArg]-{ACC} (SMILES CC(=O)N[C@@H](CN)C(=O)N[C@@H](CCCN)C(=O)N[C@@H](Cc1cccc(Cl)c1)C(=O)N[C@@H](CCCCNC(=N)N)C(=O)Nc1ccc2c(CC(N)=O)cc(=O)oc2c1) | cathepsin L (Homo sapiens, UniProt P07711) | 30,500,000 M-1s-1
Ac-[Dap][Orn][Phe(3-Cl)]E(OBn)-{ACC} (SMILES CC(=O)N[C@@H](CN)C(=O)N[C@@H](CCCN)C(=O)N[C@@H](Cc1cccc(Cl)c1)C(=O)N[C@@H](CCC(=O)OCc1ccccc1)C(=O)Nc1ccc2c(CC(N)=O)cc(=O)oc2c1) | cathepsin L (Homo sapiens, UniProt P07711) | 34,270,000 M-1s-1
Ac-[Dap][Orn][Phe(3-Cl)]C(Bn)-{ACC} (SMILES CC(=O)N[C@@H](CN)C(=O)N[C@@H](CCCN)C(=O)N[C@@H](Cc1cccc(Cl)c1)C(=O)N[C@@H](CSCc1ccccc1)C(=O)Nc1ccc2c(CC(N)=O)cc(=O)oc2c1) | cathepsin L (Homo sapiens, UniProt P07711) | 45,420,000 M-1s-1

---

molecular target: cathepsin V (Homo sapiens); construct: made in house; assay: Substrate selectivity screening, rate of hydrolysis, cathepsin V; assay type: biochemical; conditions: Table S4; substrate 100µM, cathepsin 5nM; pH 5.5, 37 °C; average of at least three screenings
Sequence (O60911 114-334): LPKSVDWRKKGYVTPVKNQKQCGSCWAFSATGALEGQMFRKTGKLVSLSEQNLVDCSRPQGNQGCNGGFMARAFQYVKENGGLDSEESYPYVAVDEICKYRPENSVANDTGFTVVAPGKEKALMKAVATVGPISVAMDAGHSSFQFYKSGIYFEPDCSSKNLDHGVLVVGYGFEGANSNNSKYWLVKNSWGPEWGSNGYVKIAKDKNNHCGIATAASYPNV
Non-standard residues stand in square brackets, D forms with d. *: point of attachment. Phe(F5) = N[C@@H](Cc1c(F)c(F)c(F)c(F)c1F)C(=O)O; Phe(3,4-F2) = N[C@@H](Cc1ccc(F)c(F)c1)C(=O)O; Phe(4-F) = N[C@@H](Cc1ccc(F)cc1)C(=O)O; Phe(2-F) = N[C@@H](Cc1ccccc1F)C(=O)O; ACC = NC(=O)Cc1cc(=O)oc2cc(N*)ccc12; Met(O) = CS(=O)CC[C@H](N)C(=O)O; Tic = O=C(O)[C@@H]1Cc2ccccc2CN1; Orn = NCCC[C@H](N)C(=O)O
Reported Relative substrate activity (rate of hydrolysis), cathepsin V values for a set of substances
measuredProperty: Relative substrate activity (rate of hydrolysis), cathepsin V (RFU/s)

substance | endpointResult
Ac-H[dR][Phe(3,4-F2)]L-{ACC} (SMILES CC(=O)N[C@@H](Cc1c[nH]cn1)C(=O)N[C@H](CCCNC(=N)N)C(=O)N[C@@H](Cc1ccc(F)c(F)c1)C(=O)N[C@@H](CC(C)C)C(=O)Nc1ccc2c(CC(N)=O)cc(=O)oc2c1) | 30.5
Ac-[Tic][Orn][Phe(4-F)]L-{ACC} (SMILES CC(=O)N1Cc2ccccc2C[C@H]1C(=O)N[C@@H](CCCN)C(=O)N[C@@H](Cc1ccc(F)cc1)C(=O)N[C@@H](CC(C)C)C(=O)Nc1ccc2c(CC(N)=O)cc(=O)oc2c1) | 31.7
Ac-H[dL][Phe(F5)][Orn]-{ACC} (SMILES CC(=O)N[C@@H](Cc1c[nH]cn1)C(=O)N[C@H](CC(C)C)C(=O)N[C@@H](Cc1c(F)c(F)c(F)c(F)c1F)C(=O)N[C@@H](CCCN)C(=O)Nc1ccc2c(CC(N)=O)cc(=O)oc2c1) | 0.0
Ac-[Met(O)][dR][Phe(2-F)]R-{ACC} (SMILES CC(=O)N[C@@H](CCS(C)=O)C(=O)N[C@H](CCCNC(=N)N)C(=O)N[C@@H](Cc1ccccc1F)C(=O)N[C@@H](CCCNC(=N)N)C(=O)Nc1ccc2c(CC(N)=O)cc(=O)oc2c1) | 129
